The measurements presented in this section are drawn from the supplement of paper PMC12764529.

Test: folding stability dG unfold (combined trypsin and chymotrypsin); higher = more stable
Where folding stability dG unfold equals or exceeds 2 kcal/mol, the correct label is rule met; where it does not, the label is rule not met.

INSERT INTO measurements (seq_text, class_label) VALUES
  ('SAGGSAGGSAGGSATVTTTTTSGATITPPALTELPSGYVAVVTPTGDTLNVVIAPKALLSAGGSAGGSAGGS [r4_279_JUSTAS]', 'rule not met'),
  ('SNPENIDKITFTFRWPDGNPMEIEIDPDGTVEYEYPNGWEIEITIDPDDGKLTIEMTFPNGRPQEQKIPISA [r9_99_TrROS]', 'rule met'),
  ('SAGGSAGGSAGGGHMIYVPPSATLEEAEKLAKELGIEDAEIIPVPEGEPLFFTPEWKLVSAGGSAGGSAGGS [r10_1083_JUSTAS]', 'rule not met'),
  ('SAGGSAGGSAGGSKKKKIIIVVPKEELSEEQIKALKDLGYEIEIVEVEKKPVKVKKKKKSAGGSAGGSAGGS [r4_294_TrROS_Hall]', 'rule not met'),
  ('SAGGSAGGSPYTIMYPIPGDTVEEVKDIAKEIMEHFPNFKITVSVEPPKDGQYWVTIELEMPDSAGGSAGGS [r12_425_TrROS]', 'rule met'),
  ('SAGGSAGGSAGGPTVTYKPPSGNVRTVEVPASRPEVVAELKAAGGEVVVVDAETGEEVLLSAGGSAGGSAGG [r7_430_JUSTAS]', 'rule not met'),
  ('SAGGSAGGSAGPKPIRIKVKWRNEKDGEKRKVTIPIPPGMPLEELIKNADPNQVRDVEIVSAGGSAGGSAGG [r11_386_TrROS]', 'rule not met'),
  ('SAGGSAGGSAGPVTITIKVPKEDEEEIEALARELAAALPPPEGAKVTVERNEDGTITITLSAGGSAGGSAGG [r17_324_TrROS_Hall]', 'rule not met'),
  ('SAGGSAPEDNYVVLIFIDISIEWKPKYDEDNGKNRIEFEWKLEIDIPTIVLPPDDPEAKDLLEDLLSAGGSA [r15_470_TrROS]', 'rule met'),
  ('SMKPGETVRVTFKTKDGSKIEIEFKNGKPVRITVYNKNGEKVKEIEVTLDELKELAEKLGIEEIVEVEKVSA [r9_1107_TrROS_Hall]', 'rule met');

----------
Test: folding stability dG unfold (combined trypsin and chymotrypsin); higher = more stable
Each entry gets 0 (no) if its folding stability dG unfold stays under 2 kcal/mol, and 1 (yes) if its folding stability dG unfold is 2 kcal/mol or above.

INSERT INTO measurements (seq_text, class_label) VALUES
  ('SAGGRGPGLPVSERKIVETRDLDPDEVSEEEIAERIKEENPDAVVEELEVDTKESKAVFKIKVKKLESAGGS [r8_202_JUSTAS]', '0 (no)'),
  ('SAGGSAGGMLLDEDGNLVVKIKLENGEEFEAKVTEIKDGKITVEVNGKKVEINAKDIELLPEDESAGGSAGG [r6_575_TrROS_Hall]', '1 (yes)'),
  ('SAMTVERLPDGSLRITIPDPNSDTTYTIEIRRLPDGSYEVTITTTKPDGSTTTTTRPMSEEEAIAEVLASAG [r14_179_JUSTAS]', '1 (yes)'),
  ('SAGLYLVKNKETKEIVTVPAENLSDEQLKAGFEVVKLPPVKINITVESAEEAEALAKLFPDKVEVTVNESAG [r14_638_TrROS_Hall]', '0 (no)'),
  ('SAGGEAEVVARAEVTLPDGVKVEVEVVRVDGKLVVRVRVEVRLPPPPPPPPPPLPPLSEEERKKLAEASAGG [r13_760_TrROS_Hall]', '1 (yes)'),
  ('SMEIKVTVEEKDGKKYVTIEIKLSEEELKGKELTEEEIEELARELAKKLGIKEVKIERLPNGTYRIVIELSA [r9_883_TrROS_Hall]', '1 (yes)'),
  ('SAGGSAGGDKKGKPKPQWVTIMFKVPDDDLPPEEIAKEFPGVKIERSPGMYMITVPVNGKWIPFSAGGSAGG [r6_739_TrROS]', '0 (no)'),
  ('SAGGMEVVEIKYDPETGTVTVTVAIPESLSFDEVAPEVEALVKEKTGRPVEITVDPATGTVTATVPRSAGGS [r8_314_JUSTAS]', '0 (no)'),
  ('SAGGSAGGSPEVLASFPLKDGSVVIVARRPGEIRVLVVKSSDLENIPELKDIKVFPTFGDDPVSAGGSAGGS [r12_343_TrMRF]', '0 (no)'),
  ('GLTVTLDGNSLTVTADAGDKTVTVTAPVFHPEKGLVTVVTVTATREDGALVLHTESRTIRLPPLPPLHPDLS [r1_100_TrMRF]', '1 (yes)'),
  ('SFEIEILDVDPDGWIVITIRYPSPDGKPLTPEEMEEIAEEIALELFPQFPDFKVTIEHDPESGTITIVIRSA [r9_485_TrROS]', '1 (yes)'),
  ('SAGGSAGGSIRRDENGNFRVRIKVRFPGNGRKRTIEIPFDNATLEEIRKQAIDHGIRPIEIIPSAGGSAGGS [r12_792_TrROS]', '0 (no)'),
  ('SAGGSAGGSAGVVVKKPGTDVVYEITEEPGSYKVTITDPKTGTTKEFTVSPEVSIESLLLSAGGSAGGSAGG [r11_772_JUSTAS]', '0 (no)'),
  ('SAGGSAGGSAGGSSYQLKLEAEFLVGDSSGKLYKVKLTITVNEDGSISIDLEVLSVFDVSAGGSAGGSAGGS [r4_496_TrMRF]', '1 (yes)'),
  ('SAGWYIKIKIEYPGDGQKKLEVPIPIPSPEEAKEFADEIADMLAEQNGGNIKIEVEVFRLPPVPPEDQGSAG [r5_87_TrROS]', '0 (no)'),
  ('SAGGSASVEVSVEEKDGTLTVTVTVEVDGKLVTVTVTLTLPPPPPLSAEELEKAREAEKEGKTVEVSAGGSA [r15_631_TrROS_Hall]', '1 (yes)'),
  ('SAIKIKNVEFNDNGWMEIEIPYPENGREVTIRMDPNGNIQVEEYPPNDGKPKRKTIPGMSIEEILEELLSAG [r14_760_TrROS]', '0 (no)'),
  ('SAGGSAGGSAMTLRVKITLPDGRELELEIEAETEEEALAALKELIKKLFPEVKEVKIEVEPESAGGSAGGSA [r18_434_TrROS_Hall]', '1 (yes)'),
  ('SAGGSAGGSAGGSQNEVQIPFNNMPPQQARNIADEALDKNKDIENIEVERDDGMFKVKVSAGGSAGGSAGGS [r4_330_TrROS]', '0 (no)');
